- target_desc: T1, Human CD98, endogenous on HCC38, Molt-4 and Jurkat human cancer cells (human)
- T1 chain: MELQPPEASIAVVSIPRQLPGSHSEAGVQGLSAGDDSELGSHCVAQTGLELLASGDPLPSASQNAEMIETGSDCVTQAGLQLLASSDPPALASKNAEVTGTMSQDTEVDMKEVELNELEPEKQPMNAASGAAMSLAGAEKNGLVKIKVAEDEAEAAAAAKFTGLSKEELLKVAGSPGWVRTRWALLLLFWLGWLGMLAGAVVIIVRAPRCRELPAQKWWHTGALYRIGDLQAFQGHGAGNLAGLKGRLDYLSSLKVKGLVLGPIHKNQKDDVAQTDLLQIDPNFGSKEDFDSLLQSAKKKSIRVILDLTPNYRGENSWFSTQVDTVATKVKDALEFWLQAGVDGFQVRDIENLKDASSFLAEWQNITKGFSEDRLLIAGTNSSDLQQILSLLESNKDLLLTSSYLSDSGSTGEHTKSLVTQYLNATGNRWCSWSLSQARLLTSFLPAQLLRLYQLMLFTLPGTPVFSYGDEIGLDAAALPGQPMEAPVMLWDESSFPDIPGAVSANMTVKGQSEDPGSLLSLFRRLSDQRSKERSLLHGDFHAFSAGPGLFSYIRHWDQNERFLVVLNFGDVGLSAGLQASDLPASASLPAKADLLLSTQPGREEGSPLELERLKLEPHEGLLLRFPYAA
- protocol: cell-based or functional assay
reported_endpoint: ADC potency, IC50 (nM), Jurkat growth inhibition

[
  {
    "binder": "Ab7-CZ (Ab7 conjugated to Bcl-xL inhibitor synthon CZ) (antibody, V domains shown) VH: QVQLKESGPGLVQPSQTLSLTCTVSGFSLSTYGVIWVRQPPGKGLEWMGVIWANGNTNYNSTLKSRLSISRDTSKSQVYLKMNSLQTEDTATYYCARHYYDGTYYYGYFDYWGQGVMVTVSS VL: DIVMTQTPSSQAVSAGEKVTMNCKSSQSLLYSENKKNYLAWYQQKPGQSPKLLIYWASTRESGVPDRFIGSGSGTDFTLTISSVQAEDLAVYYCQQYYYFPYTFGPGTKLELK",
    "obs_value": 0.134
  },
  {
    "binder": "Ab12-CZ (Ab12 conjugated to Bcl-xL inhibitor synthon CZ) (antibody, V domains shown) VH: EVQLVESGGGLVQPGRSLKLSCAASGFTFSDYAMAWVRQAPKKGLEWVASIIYDGRGTYYRDSVKGRFTISRDNAKSTLYLQMDSLRSEDTATYYCARQGDGTYYYWGSFDYWGQGVMVTVSS VL: DIVMTQSPSSLAVSAGETVTINCKSSQSLLSSGNQKNYLAWYQQKPGQSPKLLIYWASTRQSGVPDRFIGSGSGTDFTLTISSVQAEDLAIYHCQQYYDTPYTFGAGTKLELK",
    "obs_value": 0.094
  },
  {
    "binder": "Ab11-CZ (Ab11 conjugated to Bcl-xL inhibitor synthon CZ) (antibody, V domains shown) VH: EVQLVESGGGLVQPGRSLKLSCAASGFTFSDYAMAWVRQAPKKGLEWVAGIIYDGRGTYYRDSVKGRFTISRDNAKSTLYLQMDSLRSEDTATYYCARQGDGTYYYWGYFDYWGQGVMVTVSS VL: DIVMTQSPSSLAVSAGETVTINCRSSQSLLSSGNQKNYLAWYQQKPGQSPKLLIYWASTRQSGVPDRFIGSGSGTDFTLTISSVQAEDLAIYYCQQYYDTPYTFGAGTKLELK",
    "obs_value": 0.311
  },
  {
    "binder": "Ab15-CZ (Ab15 conjugated to Bcl-xL inhibitor synthon CZ) (antibody, V domains shown) VH: EVQLVESGGGLVQPGRSLKLSCAASGFTFSDYTMAWVRQAPKKGLEWVATIIYDGRGTYYRDSVKGRFTISRDNAKSTLYLQMDSLRSEDTATYYCARQSDGTYYYWGYFDYWGQGVMVTVSS VL: DIVMTQSPSSLAVSAGETVTINCKSSQSLLFSGNQKNYLAWYQQKPGQSPKLLIYWASTRQSGVPDRFIGSGSGTDFTLTIRSVQAEDLAIYYCQQYYDSPYTFGAGTKLELK",
    "obs_value": 0.076
  },
  {
    "binder": "Ab5-CZ (Ab5 conjugated to Bcl-xL inhibitor synthon CZ) (antibody, V domains shown) VH: EVKLVESGGGLVQPGGSLRLSCATSGFTFTDYYMTWVRQPPGKALEWLGFIRNKANGYTTEYSASVKGRFTISRDNSLSILYLQMNTLRAEDSATYYCARASYVNSEGWFAYWGQGTLVTVSA VL: DIVMSQSPSSLAVSVGEKVTMSCKSSQSLLYSSNQKNYLAWYQQKLGQSPKLLIYWASTRESGVPDRFTGSGSGTDFTLTISSVKAEDLAVYYCQHYYSYPRTFGGGTKLEIK",
    "obs_value": 0.137
  }
]
